Numbers sourced from ChEMBL document CHEMBL3433997.

Here, each record is paired with measured inhibition data.
target: Hexose transporter 1 (Plasmodium falciparum) (UniProt O97467); test: ST_JUDE_LEISH: Cytotoxicity at 2uM final concentration against transgenic Leishmania Mexicana promastigotes LmPfHT that are glucose transport deficient and complemented with the Plasmodium falciparum hexose transporter. Activity is measured by DNA content using SYBR green in vitro; type: functional
Numbers only here, please. The scale is %.

Consider the reported inhibition for these compounds:
>  <Compound>
O=C(NC1CC1)c1ccc(Cn2c(SCc3cccc(Cl)c3)nc3ccccc3c2=O)cc1

>  <inhibition [%]>
-0.54

$$$$
>  <Compound>
Nc1ncc(-c2ccccc2)cc1-c1cccc2ncccc12

>  <inhibition [%]>
9.12

$$$$
>  <Compound>
Fc1ccc(-c2cc3ncnc(N4CCN(CCN5CCCC5)CC4)c3s2)cc1

>  <inhibition [%]>
12.9

$$$$
>  <Compound>
CS(=O)(=O)NCCCNCc1ccc(-c2cccc(-c3nc4cc(F)ccc4[nH]3)c2)cc1

>  <inhibition [%]>
0.22

$$$$
>  <Compound>
COc1ccc(Nc2nccc(NCC(O)c3cccc(C(F)(F)F)c3)n2)cc1 (configuration not stated)

>  <inhibition [%]>
2.47

$$$$
>  <Compound>
CNc1nc(Nc2ccccc2C)nc2ccccc12

>  <inhibition [%]>
34.3

$$$$
>  <Compound>
O=C(Nc1ccc(Cl)cc1)c1ccc(CN2CCCN(CC3CCCCC3)CC2)cc1

>  <inhibition [%]>
7.11

$$$$
>  <Compound>
NC(=O)c1cccc(C(=O)Nc2ccc(-c3cccc(-c4nc5cc(F)ccc5[nH]4)c3)cc2)c1

>  <inhibition [%]>
0.01

$$$$
>  <Compound>
O=C(O)c1ccc(NC(=O)C2CC(=O)N(Cc3ccc(Cl)cc3)C(=Nc3ccc(Cl)cc3)S2)cc1 (configuration not stated)

>  <inhibition [%]>
2.86

$$$$
>  <Compound>
O=S(=O)(NCCN1CCCC1)c1cccc(-c2cccc(CNCc3ccccc3)c2)c1

>  <inhibition [%]>
17.2

$$$$

Continue with the compound presented below.
Item under review: COc1cccc(NC(=O)NC2CCN(CCCCCNC(=O)/C=C/c3ccc(Cl)c(Cl)c3)CC2)c1 . Reported inhibition?
0.47

====

target: Glucose transporter (Leishmania mexicana) (UniProt O61059); test: ST_JUDE_LEISH: Cytotoxicity at 2uM final concentration against transgenic Leishmania Mexicana promastigotes LmGT2 that are glucose transport deficient and complemented with the L. Mexicana glucose transporter 2. Activity is measured by DNA content using SYBR green in vitro; type: functional
Here, each record is paired with measured inhibition data.
Numbers only here, please. The scale is %.

>  <Molecule>
Cc1cc(N)c2cc(NC(=O)c3cc(C(F)(F)F)cc(C(F)(F)F)c3)ccc2n1

>  <System>
Glucose transporter (Leishmania mexicana) (UniProt O61059)

>  <Reported result>
0.8

$$$$
>  <Molecule>
Cc1cc(N2CCN(CC3CCN(C)CC3)CC2)nc(Nc2ccc(Br)cc2)n1

>  <System>
Glucose transporter (Leishmania mexicana) (UniProt O61059)

>  <Reported result>
1.74

$$$$
>  <Molecule>
O=C(c1cncc(-c2ccccc2)c1)N(Cc1cncn1Cc1ccccc1F)CC1CC1

>  <System>
Glucose transporter (Leishmania mexicana) (UniProt O61059)

>  <Reported result>
-0.58

$$$$
>  <Molecule>
CCCC1N=C(N)N=C(N)N1c1ccc(C)cc1 (stereo not given)

>  <System>
Glucose transporter (Leishmania mexicana) (UniProt O61059)

>  <Reported result>
2.47

$$$$
>  <Molecule>
O=C(Cn1c(SCc2cccc(F)c2F)cc(=O)c2ccccc21)N(CCn1ccnc1)Cc1ccc(-c2ccc(C(F)(F)F)cc2)cc1

>  <System>
Glucose transporter (Leishmania mexicana) (UniProt O61059)

>  <Reported result>
2.82

$$$$

Param readout= inhibition; system= Glucose transporter (Leishmania mexicana) (UniProt O61059); entry= CCCCCN1CCC(NS(=O)(=O)c2cccc(C(=O)Nc3cccc(C(F)(F)F)c3)c2)C1 (stereo not given) ; returns value.
4.07

Note, next up: O=C(/C=C/c1ccc(Cl)c(Cl)c1)NCC[C@@H]1C[C@H]1CCN1CCC(c2c[nH]c3ccccc23)CC1
6.24

Note, next up: COCCOC(=O)C(=O)c1c(-c2ccccc2)c(-c2ccc(OC)c(OC)c2)c2c3cc(OC)c(OC)cc3ccn12
1.72

Note, next up: CCCCCCCN1CCC(NC(=O)Nc2ccnc3ccc(OC)cc23)C(CO)C1 (stereo not given)
-3.37

Note, next up: CCCCNC[C@@H](O)[C@H](Cc1ccccc1)NC(=O)c1cc(NCC)cc(N2CCCCS2(=O)=O)c1
3.45

====

target: Glucose transporter (Leishmania mexicana) (UniProt O61059); assay: ST_JUDE_LEISH: Cytotoxicity at 2uM final concentration against transgenic Leishmania Mexicana promastigotes LmGT2 that are glucose transport deficient and complemented with the L. Mexicana glucose transporter 2. Activity is measured by DNA content using SYBR green in vitro; format: functional
Measured endpoint: inhibition (%)
Numbers only here, please. The scale is %.

>  <Molecule>
COc1ccc2nccc([C@@H](O)CN3CCC(NC(=O)c4nc(Cl)c(Cl)c(N)c4Cl)CC3)c2c1

>  <inhibition [%]>
1.55

$$$$
>  <Molecule>
O=S(=O)(Nc1ccc2nccc(N3CCNCC3)c2c1)c1ccc2oc3ccccc3c2c1

>  <inhibition [%]>
5.02

$$$$
>  <Molecule>
CCCC(=O)NC(c1ccc(C)cc1)c1ccc2cccnc2c1O (centres undefined)

>  <inhibition [%]>
-1.36

$$$$
>  <Molecule>
Cc1c(F)cc(C(=O)NC2CC2)cc1-c1ccc2c(cnn2S(=O)(=O)c2ccc(Cl)s2)c1

>  <inhibition [%]>
0.9

$$$$
>  <Molecule>
COc1ccc2[nH]ccc(=NN=Cc3ccccc3Cl)c2c1

>  <inhibition [%]>
2.03

$$$$

Item under review: CC(=O)c1c(Cc2cccc(C(F)(F)F)c2)c[nH]c1C . Reported inhibition?
-0.87

Note, next up: CC[C@@H]([C@@H](Cc1cc2ccccc2s1)C(=O)N[C@@H](CCCCNC(=O)OCc1ccccc1)C(=O)Nc1ccccn1)N(O)C=O
3.75

====

molecular target: Solute carrier family 2, facilitated glucose transporter member 1 (Homo sapiens) (UniProt P11166); experiment: ST_JUDE_LEISH: Cytotoxicity at 2uM final concentration against transgenic Leishmania Mexicana promastigotes LmGLUT1 that are glucose transport deficient and complemented with the human glucose transporter GLUT1. Activity is measured by DNA content using SYBR green in vitro; format: functional
Sequence (P11166 whole entry): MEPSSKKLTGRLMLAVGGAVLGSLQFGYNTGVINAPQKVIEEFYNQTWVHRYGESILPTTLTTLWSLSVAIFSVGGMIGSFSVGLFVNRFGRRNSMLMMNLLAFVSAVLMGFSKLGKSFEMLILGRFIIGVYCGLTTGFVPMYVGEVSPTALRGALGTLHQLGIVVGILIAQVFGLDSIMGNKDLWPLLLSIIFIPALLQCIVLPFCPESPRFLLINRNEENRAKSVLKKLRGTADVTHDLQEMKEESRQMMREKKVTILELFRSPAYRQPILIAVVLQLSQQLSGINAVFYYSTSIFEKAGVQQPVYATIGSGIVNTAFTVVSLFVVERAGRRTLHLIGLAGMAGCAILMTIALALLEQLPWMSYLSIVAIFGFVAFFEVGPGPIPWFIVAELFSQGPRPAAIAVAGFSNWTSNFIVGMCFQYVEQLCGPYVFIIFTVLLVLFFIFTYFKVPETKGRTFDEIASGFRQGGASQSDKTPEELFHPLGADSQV
Measured endpoint: inhibition (%)
Numbers only here, please. The scale is %.

>  <Molecule>
CC(C(=O)OCCOCn1cnc2c(=O)[nH]c(N)nc21)N(C)C(=O)OC(C)(C)C (stereo not given)

>  <Reported result>
-2.44

$$$$
>  <Molecule>
O=C(/C=C/c1ccc(Cl)c(Cl)c1)NC1CCN(Cc2ccc(O)cc2)CC1

>  <Reported result>
1.47

$$$$
>  <Molecule>
COc1ccccc1CCNc1nc(C)cc(N[C@@H](CC(C)C)C(=O)NCc2cccc(F)c2)n1

>  <Reported result>
9.56

$$$$

Item under review: COc1ccc(S(=O)(=O)N2CCOCC2)cc1NC(=O)c1cc2ccccc2o1 . Reported inhibition?
2.09

Note, next up: CC1(C)N=C(N)N=C(N)N1OCC1COc2ccccc2O1 (stereo not given)
1.54

====

target: Hexose transporter 1 (Plasmodium falciparum); experiment: ST_JUDE_LEISH: Cytotoxicity at 2uM final concentration against transgenic Leishmania Mexicana promastigotes LmPfHT that are glucose transport deficient and complemented with the Plasmodium falciparum hexose transporter. Activity is measured by DNA content using SYBR green in vitro; type: functional
Measured endpoint: inhibition (%)
Numbers only here, please. The scale is %.

Item under review: NC(=O)C1CCN(Cc2ccc(-c3ccc(-c4nc5cc(F)ccc5[nH]4)cc3)cc2)CC1 . Reported inhibition?
12.7

Note, next up: COc1ccc(Nc2ncc3c(-c4ccc(NC(=O)c5cccc(C(F)(F)F)c5)cc4)c[nH]c3n2)cc1OC
-0.05

Note, next up: O=C(Nc1ccc(C(F)(F)F)cc1)c1ccc(S(=O)(=O)NC2CCN(CC3CCCCC3)C2)cc1 (stereo not given)
1.05

Note, next up: O=C(Cc1ccccc1)NC(c1ccccc1)c1ccc2cccnc2c1O (stereo not given)
0.51

====

target: Glucose transporter (Leishmania mexicana) (UniProt O61059); experiment: ST_JUDE_LEISH: Cytotoxicity at 2uM final concentration against transgenic Leishmania Mexicana promastigotes LmGT2 that are glucose transport deficient and complemented with the L. Mexicana glucose transporter 2. Activity is measured by DNA content using SYBR green in vitro; format: functional
Measured endpoint: inhibition (%)
Numbers only here, please. The scale is %.

Consider the reported inhibition for these compounds:
>  <Compound>
COc1cccc(C(=O)N2CCN(Cc3cccc(NC(=O)c4cccs4)c3)CC2)c1

>  <inhibition (%)>
5.14

$$$$
>  <Compound>
CCOc1ccc(OCCCON2C(=N)N=C(N)NC2(C)C)cc1

>  <inhibition (%)>
0.05

$$$$
>  <Compound>
COc1ccc(-c2nc3c4ccccc4c4ccc(I)cc4c3[nH]2)cc1

>  <inhibition (%)>
2.32

$$$$
>  <Compound>
O=C(N[C@@H](Cc1ccccc1)C(=O)O)c1cc(-c2ccc(F)cc2)no1.O=C(N[C@@H](Cc1ccccc1)C(=O)O)c1conc1-c1ccc(F)cc1

>  <inhibition (%)>
6.74

$$$$
>  <Compound>
O=C(CC1CCCCC1)NCC(NCCCNc1cc(=O)c2ccccc2[nH]1)c1cc(Br)cc(Br)c1 (centres undefined)

>  <inhibition (%)>
2.63

$$$$
>  <Compound>
O=C(Cc1ccc(Nc2nccc(Nc3cccc4[nH]ncc34)n2)cc1)Nc1ccc(C(F)(F)F)cc1

>  <inhibition (%)>
4.78

$$$$

Item under review: CC(c1cccc(Nc2nccc(-c3c(-c4cccc(NC(=O)c5c(F)cccc5F)c4)nn4ncccc34)n2)c1)S(C)(=O)=O (centres undefined) . Reported inhibition?
0.35

Note, next up: CCCCN(CCCC)CCNC(=O)c1cc(OC(F)(F)F)ccc1O
0.03

Note, next up: Cc1cc(C(=O)N[C@H]2CCN(Cc3ccc(OCCCN(C)C)cc3)C2)ccc1Br
1.98
